- Test system: Calpain activity in SH-SY5Y cells
- assay-notes: SH-SY5Y + AMC fluorescence assay (Suc-LLVY-AMC substrate)
- Format: cell-based
- condition-summary: read-out: SH-SY5Y + AMC IC50
pIC50: −log10 of the molar value.
readout-type: pIC50

Here's what some known entries look like.
{"compound": "NC(=O)C(=O)C(Cc1ccccc1)NC(=O)c1cnoc1-c1ccccc1 (centres unmarked) [Compound 531]", "recorded-measurement": "< 4.60"}
{"compound": "NC(=O)C(=O)C(Cc1ccccc1)NC(=O)c1cnoc1-c1ccccc1F (centres unmarked) [Compound 556]", "recorded-measurement": "> 5.00"}
{"compound": "Cn1cc(C(=O)N[C@H](C=O)Cc2ccccc2)c(-c2cccc(F)c2)n1 [Compound 328]", "recorded-measurement": "< 4.60"}
{"compound": "NC(=O)C(=O)C(Cc1ccccc1)NC(=O)c1nsnc1Br (centres unmarked) [Compound 366]", "recorded-measurement": "> 5.00"}
{"compound": "Cn1cc(C(=O)NC(Cc2ccccc2)C(=O)C(N)=O)c(-c2ccc3ccccc3c2)n1 (centres unmarked) [Compound 571]", "recorded-measurement": "< 4.60"}
{"compound": "NC(=O)C(=O)C(Cc1ccccc1)NC(=O)c1cn(-c2ccc(F)cc2)nc1-c1ccccc1 (centres unmarked) [Compound 529]", "recorded-measurement": "> 5.00"}

Lookup: Query: pIC50; subject: Cn1cc(C(=O)NC(Cc2ccccc2)C(=O)C(N)=O)c(-c2cccc3c2OCCO3)n1 (centres unmarked) [Compound 570]
Found: < 4.60

====

- target-under-test: Human Calpain 9/NS1 (Homo sapiens)
- Sequence (O14815 1-690): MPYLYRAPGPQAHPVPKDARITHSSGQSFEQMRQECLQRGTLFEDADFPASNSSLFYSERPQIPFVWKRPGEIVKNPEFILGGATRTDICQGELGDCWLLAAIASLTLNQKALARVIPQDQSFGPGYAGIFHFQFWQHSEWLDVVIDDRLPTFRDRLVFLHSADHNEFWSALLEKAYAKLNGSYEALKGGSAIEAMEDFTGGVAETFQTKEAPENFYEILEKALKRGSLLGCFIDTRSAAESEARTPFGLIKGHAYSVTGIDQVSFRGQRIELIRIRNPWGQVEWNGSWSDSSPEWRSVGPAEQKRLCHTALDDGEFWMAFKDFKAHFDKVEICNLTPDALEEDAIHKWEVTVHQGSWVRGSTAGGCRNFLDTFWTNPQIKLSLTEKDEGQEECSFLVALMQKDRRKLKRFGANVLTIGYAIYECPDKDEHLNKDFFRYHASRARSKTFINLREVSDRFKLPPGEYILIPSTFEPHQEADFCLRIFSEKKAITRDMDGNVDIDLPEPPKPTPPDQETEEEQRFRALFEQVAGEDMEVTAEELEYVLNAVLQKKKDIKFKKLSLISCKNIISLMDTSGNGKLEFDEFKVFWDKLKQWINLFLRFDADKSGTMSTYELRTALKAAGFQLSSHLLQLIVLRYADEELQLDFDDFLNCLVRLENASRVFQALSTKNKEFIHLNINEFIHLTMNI
- Sequence (P04632 1-268 partner): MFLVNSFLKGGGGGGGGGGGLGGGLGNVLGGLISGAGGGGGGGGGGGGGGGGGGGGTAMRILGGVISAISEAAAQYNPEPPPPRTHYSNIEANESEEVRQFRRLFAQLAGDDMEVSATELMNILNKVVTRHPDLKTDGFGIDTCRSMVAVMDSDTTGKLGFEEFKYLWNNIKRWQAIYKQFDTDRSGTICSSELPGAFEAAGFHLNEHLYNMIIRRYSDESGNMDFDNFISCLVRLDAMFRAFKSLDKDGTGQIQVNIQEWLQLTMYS
- assay-notes: Calpain inhibition continuous fluorescence (FRET) assay, Human Calpain 9/NS1
- Format: biochemical
- condition-summary: Column C; read-out: Human Calpain 9/NS1 IC50
Entries and their IC50 values follow.

{"record-smiles": "NC(=O)C(=O)[C@H](Cc1ccccc1)NC(=O)c1cncn1-c1nc2ccccc2s1", "recorded-measurement": "< 3 µM"}

Lookup: Quick one: IC50 for CC[C@@H](C)[C@H](NC(=O)c1c(C)noc1-c1ccccc1)C(=O)C(N)=O ?
Found: > 10 µM

Lookup: Data request, read-out IC50, for Cc1cc(C(=O)N[C@@H](Cc2ccccc2)C(=O)C(N)=O)n(-c2nc3c(C)cccc3s2)n1
Found: > 10 µM

Lookup: Reported IC50 for Cc1cc(C(=O)N[C@@H](Cc2ccccc2)C(=O)C(N)=O)nn1-c1nccs1 : what is it?
Found: 3 to 10 µM

Lookup: So what does the record say about IC50 for Cc1noc(-c2ccccc2)c1C(=O)N[C@@H](Cc1ccccc1)C(=O)C(=O)NCc1ccc(Cl)c(Cl)c1 ?
Found: > 10 µM

Lookup: Reported IC50 for O=C[C@H](Cc1ccccc1)NC(=O)[C@@H]1CCCN1c1nc2ccccc2s1 : what is it?
Found: < 3 µM

Lookup: Dear colleague, I am looking for the recorded IC50 of the following compound: COc1cccc(-c2nn(C)cc2C(=O)N[C@@H](Cc2ccccc2)C(=O)C(N)=O)c1
Found: < 3 µM

====

- target-under-test: Human Calpain 1/NS1 (Homo sapiens, UniProt P07384)
- Sequence (P07384 whole entry, one chain of several): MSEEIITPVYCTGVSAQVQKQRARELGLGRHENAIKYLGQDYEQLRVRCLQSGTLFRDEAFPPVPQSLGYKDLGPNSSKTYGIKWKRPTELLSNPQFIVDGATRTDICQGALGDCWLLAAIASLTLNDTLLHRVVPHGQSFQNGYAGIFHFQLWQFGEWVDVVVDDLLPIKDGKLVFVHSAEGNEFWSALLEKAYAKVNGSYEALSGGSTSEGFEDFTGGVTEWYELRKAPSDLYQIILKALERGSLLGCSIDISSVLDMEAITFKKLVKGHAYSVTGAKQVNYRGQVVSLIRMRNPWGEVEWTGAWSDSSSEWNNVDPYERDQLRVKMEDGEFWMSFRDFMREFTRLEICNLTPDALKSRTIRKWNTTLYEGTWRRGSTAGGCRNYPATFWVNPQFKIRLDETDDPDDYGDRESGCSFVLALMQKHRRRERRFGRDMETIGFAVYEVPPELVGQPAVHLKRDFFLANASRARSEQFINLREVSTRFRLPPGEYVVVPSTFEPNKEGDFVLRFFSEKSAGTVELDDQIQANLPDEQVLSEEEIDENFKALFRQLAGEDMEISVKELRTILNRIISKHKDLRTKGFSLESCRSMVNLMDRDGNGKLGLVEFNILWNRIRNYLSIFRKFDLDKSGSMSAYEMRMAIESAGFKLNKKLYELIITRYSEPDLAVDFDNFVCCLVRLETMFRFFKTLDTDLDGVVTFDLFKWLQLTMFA
- assay-notes: Calpain inhibition continuous fluorescence (FRET) assay, Human Calpain 1/NS1
- Format: biochemical
- condition-summary: read-out: Human Calpain 1/NS1 IC50
pIC50: −log10 of the molar value.
readout-type: pIC50

{"compound": "NC(=O)C(=O)C(Cc1ccccc1)NC(=O)c1cn(C(F)F)nc1-c1ccccn1 (stereo not drawn)", "recorded-measurement": "> 5.52"}
{"compound": "O=CC(Cc1ccccc1)NC(=O)c1nsnc1-c1ccccc1 (stereo not drawn)", "recorded-measurement": "> 5.52"}

Now for the compound whose pIC50 we want.
Lookup: Which measured pIC50 value corresponds to COc1cncc(-c2nn(C)cc2C(=O)NC(Cc2ccccc2)C(=O)C(N)=O)c1 (stereo not drawn) ?
Found: > 5.52

====

- target-under-test: Human Calpain 1/NS1 (Homo sapiens, UniProt P07384)
- assay-notes: Calpain inhibition continuous fluorescence (FRET) assay, Human Calpain 1/NS1
- Type: biochemical
- condition-summary: Column A; read-out: Human Calpain 1/NS1 IC50
Recorded IC50 by entry

{"compound": "Cn1nnc(C(=O)N[C@@H](Cc2ccccc2)C(=O)C(N)=O)c1-c1ccccc1 [Compound 260]", "IC50": "< 3 µM"}
{"compound": "Cc1cccc(-n2nc(C)cc2C(=O)N[C@@H](Cc2ccccc2)C(=O)C(N)=O)n1 [Compound 84]", "IC50": "< 3 µM"}

Now turn to the next compound.
Lookup: Item NC(=O)C(=O)[C@H](Cc1ccccc1)NC(=O)c1conc1-c1ccccc1F [Compound 277] has what recorded IC50?
Found: < 3 µM

====

- Test system: Calpain activity in SH-SY5Y cells
- assay-notes: SH-SY5Y + AMC fluorescence assay (Suc-LLVY-AMC substrate)
- Assay type: cell-based
- condition-summary: read-out: SH-SY5Y + AMC IC50
readout-type: IC50

{"compound": "Cc1cccc(-c2oncc2C(=O)NC(Cc2ccccc2)C(=O)C(N)=O)c1 (stereo not shown)", "target-under-test": "Calpain activity in SH-SY5Y cells", "IC50": "> 25 µM"}
{"compound": "Cc1ccccc1-c1oncc1C(=O)NC(Cc1ccccc1)C(=O)C(N)=O (stereo not shown)", "target-under-test": "Calpain activity in SH-SY5Y cells", "IC50": "< 10 µM"}
{"compound": "NC(=O)C(=O)C(Cc1ccccc1)NC(=O)c1cn(C(F)F)nc1-c1cc(F)cc(F)c1 (stereo not shown)", "target-under-test": "Calpain activity in SH-SY5Y cells", "IC50": "< 10 µM"}

Lookup: Which IC50 reading was recorded for the compound NC(=O)C(=O)C(Cc1ccccc1)NC(=O)c1cc(C(F)(F)C(F)(F)F)nn1-c1ccccc1 (stereo not shown) ?
Found: 10 to 25 µM

====

- target-under-test: Human Calpain 2/NS1 (Homo sapiens, UniProt P17655)
- Sequence (P17655 whole entry, one chain of several): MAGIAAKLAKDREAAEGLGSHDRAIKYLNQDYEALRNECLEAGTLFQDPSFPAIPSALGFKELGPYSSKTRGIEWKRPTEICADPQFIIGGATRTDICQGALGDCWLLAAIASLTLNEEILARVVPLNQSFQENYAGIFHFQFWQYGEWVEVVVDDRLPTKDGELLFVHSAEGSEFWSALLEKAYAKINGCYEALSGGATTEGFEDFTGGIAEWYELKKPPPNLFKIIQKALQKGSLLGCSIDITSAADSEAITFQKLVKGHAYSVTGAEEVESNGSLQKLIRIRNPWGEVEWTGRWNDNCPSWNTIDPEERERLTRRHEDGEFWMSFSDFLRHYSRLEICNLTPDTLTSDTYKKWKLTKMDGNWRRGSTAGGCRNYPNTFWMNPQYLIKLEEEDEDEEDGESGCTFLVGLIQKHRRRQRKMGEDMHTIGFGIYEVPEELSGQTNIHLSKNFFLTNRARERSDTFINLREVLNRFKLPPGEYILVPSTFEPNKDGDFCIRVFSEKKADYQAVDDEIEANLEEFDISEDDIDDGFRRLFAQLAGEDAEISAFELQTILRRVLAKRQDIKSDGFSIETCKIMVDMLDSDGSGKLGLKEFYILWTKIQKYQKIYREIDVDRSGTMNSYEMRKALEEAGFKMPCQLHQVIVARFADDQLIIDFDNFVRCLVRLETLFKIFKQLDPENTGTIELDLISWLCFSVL
- assay-notes: Calpain inhibition continuous fluorescence (FRET) assay, Human Calpain 2/NS1
- Assay type: biochemical
- condition-summary: read-out: Human Calpain 2/NS1 IC50
readout-type: IC50

Below: 2 molecules and their reported IC50.
{"molecule": "Cn1cc(C(=O)N[C@@H](Cc2ccccc2)C(=O)C(=O)NCCC(N)=O)c(-c2ccccc2)n1", "target-under-test": "Human Calpain 2/NS1 (Homo sapiens, UniProt P17655)", "recorded-measurement": "< 3 µM"}
{"molecule": "NC(=O)C(=O)C(Cc1ccccc1)NC(=O)c1nsnc1-c1cnccn1 (stereo not drawn)", "target-under-test": "Human Calpain 2/NS1 (Homo sapiens, UniProt P17655)", "recorded-measurement": "< 3 µM"}

Lookup: Can you look up the measured IC50 of Cn1cc(C(=O)NC(Cc2ccccc2)C(=O)C(N)=O)c(-c2ccsc2)n1 (stereo not drawn) for me?
Found: < 3 µM

Lookup: For the molecule shown here, NC(=O)C(=O)C(Cc1ccc(F)cc1)NC(=O)c1nsnc1-c1ccccc1 (stereo not drawn) , give the reported IC50.
Found: < 3 µM

Lookup: // lookup IC50 for Cc1ccccc1-c1nn(C(F)F)cc1C(=O)NC(Cc1ccccc1)C(=O)C(N)=O (stereo not drawn)
Found: < 3 µM

Lookup: May I ask what IC50 has been recorded for NC(=O)C(=O)C(Cc1ccccc1)NC(=O)c1cn(C(F)F)nc1-c1cnc2ccccc2c1 (stereo not drawn) ?
Found: < 3 µM

Lookup: Query: IC50; subject: Cc1occ(C(=O)N[C@@H](Cc2ccccc2)C(=O)C(N)=O)c1-c1ccccc1
Found: < 3 µM

Lookup: Tell me the measured IC50 of NC(=O)C(=O)[C@H](Cc1ccccc1)NC(=O)c1conc1-c1cccc(F)c1 , please.
Found: < 3 µM

Lookup: What IC50 value was documented for this molecule, NC(=O)C(=O)C(Cc1ccccc1)NC(=O)c1cc(Br)nn1-c1ncccn1 (stereo not drawn) ?
Found: < 3 µM

Lookup: So what does the record say about IC50 for Cc1cc(C(=O)NC(Cc2ccccc2)C(=O)C(N)=O)n(-c2ccc(OC3CCOCC3)cc2)n1 (stereo not drawn) ?
Found: < 3 µM

Lookup: Data request, read-out IC50, for C#CCOCc1ccc(-c2nsnc2C(=O)N[C@@H](Cc2ccccc2)C(=O)CF)cc1
Found: < 3 µM

Lookup: Given Cn1cc(C(=O)NC(Cc2ccccc2)C(=O)C(N)=O)c(-c2ccsc2Cl)n1 (stereo not drawn) , state its recorded IC50.
Found: < 3 µM

Lookup: Would you kindly share the measured IC50 for C#Cc1nccc(-n2nc(C)cc2C(=O)NC(Cc2ccccc2)C(=O)C(N)=O)n1 (stereo not drawn) ?
Found: < 3 µM
